The origin of these recorded values is paper PMC6372542.

assay: Non-compartmental plasma pharmacokinetics of sertraline and N-desmethylsertraline in HIV-infected and uninfected youth (IMPAACT P1080); conditions: human, in vivo, 100 mg, Norm-Cmax, EFV cohort n = 3; normalized to 100 mg once daily and 70 kg; median (minimum, maximum)
Measurement label: Cmax (ng/mL)

>>> endpoint_value("CN[C@H]1CC[C@@H](c2ccc(Cl)c(Cl)c2)c2ccccc21 [Sertraline]")
28.8

###

test: Non-compartmental plasma pharmacokinetics of sertraline and N-desmethylsertraline in HIV-infected and uninfected youth (IMPAACT P1080); settings: human, in vivo, C24, PI/r cohort n = 12; 24 h post-dose; median (interquartile range)
Measurement label: concentration at 24 h (ng/mL)

>>> endpoint_value("CN[C@H]1CC[C@@H](c2ccc(Cl)c(Cl)c2)c2ccccc21 [Sertraline]")
12.6

###

assay: Non-compartmental plasma pharmacokinetics of sertraline and N-desmethylsertraline in HIV-infected and uninfected youth (IMPAACT P1080); conditions: human, in vivo, C24, EFV cohort n = 3; 24 h post-dose; median (minimum, maximum)
Measurement label: concentration at 24 h

>>> endpoint_value("CN[C@H]1CC[C@@H](c2ccc(Cl)c(Cl)c2)c2ccccc21 [Sertraline]")
"4.2 ng/mL"

###

test: Non-compartmental plasma pharmacokinetics of sertraline and N-desmethylsertraline in HIV-infected and uninfected youth (IMPAACT P1080); conditions: read-out: Norm-C0; HIV(-) cohort n = 16; normalized to 100 mg once daily and 70 kg; median (interquartile range)
Measurement label: concentration (ng/mL)

>>> endpoint_value("CN[C@H]1CC[C@@H](c2ccc(Cl)c(Cl)c2)c2ccccc21 [Sertraline]")
33.3

###

assay: Non-compartmental plasma pharmacokinetics of sertraline and N-desmethylsertraline in HIV-infected and uninfected youth (IMPAACT P1080); settings: human, in vivo, 1.3 mg/kg, Cmax, HIV(-) cohort n = 16; median (interquartile range)
Measurement label: Cmax (ng/mL)

>>> endpoint_value("CN[C@H]1CC[C@@H](c2ccc(Cl)c(Cl)c2)c2ccccc21")
46.7

###

Assay: Sertraline population pharmacokinetics (NONMEM, one-compartment model at steady-state)
Type: in vivo, human
Conditions: human, plasma, oral; population model, for a typical 70 kg patient; read-out: estimated clearance (converted)
Procedure: A one-compartment model at steady-state with first-order absorption and elimination best described the data (ADVAN2 TRANS2, FOCE with interaction). A combined (additive and proportional) residual error model was used. Covariates were screened individually on each pharmacokinetic parameter (CL/F, V/F, and ka). For all models, goodness of fit were assessed with diagnostic plots. All covariates that improved model fit at p < 0.05 were included in the multivariate screen.
Measurement label: clearance (mL/min)

>>> endpoint_value("CN[C@H]1CC[C@@H](c2ccc(Cl)c(Cl)c2)c2ccccc21")
1920

###

assay: Non-compartmental plasma pharmacokinetics of sertraline and N-desmethylsertraline in HIV-infected and uninfected youth (IMPAACT P1080); settings: read-out: Norm-C0; EFV cohort n = 3; normalized to 100 mg once daily and 70 kg; median (minimum, maximum)
Measurement label: concentration (ng/mL)

>>> endpoint_value("CN[C@H]1CC[C@@H](c2ccc(Cl)c(Cl)c2)c2ccccc21")
13.1

###

Experiment: Non-compartmental plasma pharmacokinetics of sertraline and N-desmethylsertraline in HIV-infected and uninfected youth (IMPAACT P1080)
Settings: human, in vivo, 0.7 mg/kg, Cmax, EFV cohort n = 3; median (minimum, maximum)
Procedure: International Maternal Pediatric Adolescent AIDS Clinical Trials Network (IMPAACT) P1080 was a multicenter, pilot study of psychiatric and antiretroviral medication concentrations in HIV-1-infected and uninfected youth. […] The area under the concentration vs. time curve from time 0–24 h post dose (AUC0−24) was estimated using the trapezoidal rule. Apparent oral clearance (CL/F), where F is bioavailability, was calculated as dose divided by AUC0−24. […] The half-life (t1/2) was calculated as 0.693/k. […]
Measurement label: Cmax

>>> endpoint_value("CN[C@H]1CC[C@@H](c2ccc(Cl)c(Cl)c2)c2ccccc21 [Sertraline]")
"13.2 ng/mL"
